System: DLD1 WT cells
Test: 7-day cell viability assay (CellTiter-Glo), DLD1 parental (WT)
Type: cell-based, human
Conditions: Homo sapiens, DLD-1, 168 h, 7-day CellTiter-Glo, n=2
Below, each entry is listed alongside its reported IC50.

Recorded IC50, per entry:
COc1cnc(Cl)cc1-c1cc(C)ncc1C(=O)Nc1nc2c(s1)CN(C(=O)c1nc(C(F)(F)F)c(C)cc1C)C2    ≥ 10 µM
COc1cnc(C(F)F)cc1-c1cc(C)ncc1C(=O)Nc1nc2c(s1)CN(C(=O)c1ccc(C(F)(F)F)nc1OC)C2    ≥ 10 µM
COc1cnc(Cl)cc1-c1cc(C)ncc1C(=O)Nc1nc2c(s1)CN(C(=O)c1nccc(C(F)(F)F)c1OC)C2    ≥ 10 µM
Cc1cc(-c2cc(Cl)cnc2OC(F)F)c(C(=O)Nc2nc3c(s2)CN(C(=O)c2ccc(C(F)F)cn2)C3)cn1    ≥ 10 µM
COc1cnc(Cl)cc1-c1cc(C)ncc1C(=O)Nc1nc2c(s1)CN(C(=O)c1nccc(C(F)F)c1C)C2    ≥ 10 µM
COc1cnc(Cl)cc1-c1cc(C)ncc1C(=O)Nc1nc2c(s1)CN(C(=O)c1cc(C)c(C(F)(F)F)c(C)n1)C2    ≥ 10 µM

Alright, here's another compound for you.
Notebook entry, DLD1 WT cells assay: IC50 of `COc1cnc(Cl)cc1-c1cc(C)ncc1C(=O)Nc1nc2c(s1)CN(C(=O)c1ccc(OC(F)(F)F)nc1OC)C2` = ?
≥ 10 µM
